Values compiled from patent US8318943B1.

Test Summary: physchem
Test Parameters: 1:5 EtOAc/EtOH (v/v), 60 °C, organic solvent or mixture, thermodynamic from solid
Property Label: solubility (mg/mL)
Please give a number only; it is taken to be in mg/mL.

Task: Consider the compound shown here: OC[C@@H](O)[C@@H](O)[C@H](O)[C@@H](O)CO What is its recorded solubility?
Output: 11

----------
Test Summary: Approximate solubility tests in selected solvents
Format: physicochemical
Test Parameters: acetonitrile, organic solvent or mixture; read-out: Solubility [S, mg/ml]
Property Label: solubility

Task: Consider the molecule shown here: Cc1c(OCC(F)(F)F)ccnc1C[S@@+]([O-])c1nc2ccccc2[nH]1 [SP134-FD-P1, dexlansoprazole sesquihydrate, reference compound] What is its recorded solubility?
Output: ~210 mg/mL
